# experimentalSystem: human ether-à-go-go-related gene (hERG) potassium channel (human, UniProt Q12809)
# Sequence (Q12809 whole entry, looked up): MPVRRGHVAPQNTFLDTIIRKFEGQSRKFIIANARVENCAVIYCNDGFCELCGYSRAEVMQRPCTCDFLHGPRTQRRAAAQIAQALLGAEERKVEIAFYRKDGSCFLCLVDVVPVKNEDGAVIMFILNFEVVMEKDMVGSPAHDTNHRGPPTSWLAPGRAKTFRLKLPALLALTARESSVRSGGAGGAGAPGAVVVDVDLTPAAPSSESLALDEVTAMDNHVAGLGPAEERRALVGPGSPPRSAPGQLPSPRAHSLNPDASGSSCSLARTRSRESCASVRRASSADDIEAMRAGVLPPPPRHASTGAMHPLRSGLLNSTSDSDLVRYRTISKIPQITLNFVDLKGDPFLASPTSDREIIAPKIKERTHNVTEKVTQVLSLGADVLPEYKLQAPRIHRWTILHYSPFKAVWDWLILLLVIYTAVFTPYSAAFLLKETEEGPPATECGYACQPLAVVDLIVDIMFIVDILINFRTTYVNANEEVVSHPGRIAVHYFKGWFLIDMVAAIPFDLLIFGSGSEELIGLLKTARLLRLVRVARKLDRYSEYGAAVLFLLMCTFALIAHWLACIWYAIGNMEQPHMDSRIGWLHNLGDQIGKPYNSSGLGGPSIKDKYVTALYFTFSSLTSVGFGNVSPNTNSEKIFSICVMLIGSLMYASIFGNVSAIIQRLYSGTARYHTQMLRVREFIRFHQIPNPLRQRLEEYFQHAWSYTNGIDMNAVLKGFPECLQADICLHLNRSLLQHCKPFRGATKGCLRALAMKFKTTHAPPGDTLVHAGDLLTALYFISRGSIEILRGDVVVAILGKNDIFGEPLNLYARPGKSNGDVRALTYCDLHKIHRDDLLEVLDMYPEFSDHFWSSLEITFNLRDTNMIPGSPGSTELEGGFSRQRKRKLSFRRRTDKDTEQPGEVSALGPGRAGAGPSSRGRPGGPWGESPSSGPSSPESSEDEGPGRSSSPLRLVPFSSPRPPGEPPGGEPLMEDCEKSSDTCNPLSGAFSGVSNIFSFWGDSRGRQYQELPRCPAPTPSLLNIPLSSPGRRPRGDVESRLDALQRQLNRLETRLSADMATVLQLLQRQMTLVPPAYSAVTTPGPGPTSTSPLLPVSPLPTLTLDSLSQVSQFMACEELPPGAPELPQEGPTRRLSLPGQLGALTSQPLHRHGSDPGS
# procedureDetails: primary screen, population patch clamp on CHO cells stably expressing hERG; higher = less effect of the substance
Hit rate of the full screen: of about 310,000 compounds, about 2,200 (0.71%) showed an effect of 50% or more. Effects have a minus sign here. Many of the other results were omitted from the sample, so strong results are more common in it than they were.
assayMetric: hERG current change (%, negative = inhibition) at 1uM (%)

>  <compound>
Cl.OC(COCc1ccc(Cl)cc1)CN1CCc2ccccc2C1 (stereo not shown)

>  <unitOfMeasurement>
%

>  <valueMeasured>
-27.3

$$$$
>  <compound>
CCn1cc(CN2CCC(n3nccc3NC(=O)c3ccccc3C)CC2)cn1

>  <unitOfMeasurement>
%

>  <valueMeasured>
-14.9

$$$$
>  <compound>
Cc1ccccc1NC(=O)C1CCCN1C(=O)NC1CCCCC1 (stereo not shown)

>  <unitOfMeasurement>
%

>  <valueMeasured>
17.4

$$$$
>  <compound>
O=c1[nH]c2ccccc2n1C1CCN(CCCC(c2ccc(F)cc2)c2ccc(F)cc2)CC1

>  <unitOfMeasurement>
%

>  <valueMeasured>
-76.5

$$$$
>  <compound>
COc1ccc(CC(=O)Nc2ccc(OC(C)=O)cc2C(=O)O)cc1

>  <unitOfMeasurement>
%

>  <valueMeasured>
-3.47

$$$$
>  <compound>
CC(=O)c1cc(CN2CCC(n3nccc3NC(=O)c3ccccc3Cl)CC2)cs1

>  <unitOfMeasurement>
%

>  <valueMeasured>
-40.5

$$$$
>  <compound>
CC12CCC(C(=Nc3ccc(N=C4C(=O)C5(C)CCC4C5(C)C)cc3)C1=O)C2(C)C

>  <unitOfMeasurement>
%

>  <valueMeasured>
8.42

$$$$
>  <compound>
COc1ccc2c(c1)c(C(=O)O)c(C)n2CC(C)C

>  <unitOfMeasurement>
%

>  <valueMeasured>
-2.31

$$$$
>  <compound>
CC(=O)c1cc(CN2CCC(n3nccc3NC(=O)c3ccccc3C)CC2)cs1

>  <unitOfMeasurement>
%

>  <valueMeasured>
-15.8

$$$$
>  <compound>
CCn1cc(CN2CCC(n3nccc3NC(=O)c3ccccc3OC)CC2)cn1

>  <unitOfMeasurement>
%

>  <valueMeasured>
-53.5

$$$$
>  <compound>
COC(=O)Nc1nc2c(C)cccc2s1

>  <unitOfMeasurement>
%

>  <valueMeasured>
-4.56

$$$$
>  <compound>
CN(C)CCCOC(=O)c1cc2ccccc2o1.Cl

>  <unitOfMeasurement>
%

>  <valueMeasured>
13

$$$$
>  <compound>
CCCN1C(=O)/C(=C/C=C2\N(CC)c3ccccc3C2(C)C)SC1=S

>  <unitOfMeasurement>
%

>  <valueMeasured>
5.72

$$$$
>  <compound>
O=C1CC(N2CCC(n3c(=O)[nH]c4ccccc43)CC2)C(=O)N1c1ccc(F)cc1 (stereo not shown)

>  <unitOfMeasurement>
%

>  <valueMeasured>
7.15

$$$$
>  <compound>
CCOC(=O)c1ccc(Oc2nc(NC(C)(C)C)nc(N(C)C)n2)cc1

>  <unitOfMeasurement>
%

>  <valueMeasured>
6.02

$$$$
>  <compound>
Cc1cccc(CN2C[C@]34C=C[C@@H](C[C@@H]3S2(=O)=O)O4)c1

>  <unitOfMeasurement>
%

>  <valueMeasured>
10.3

$$$$
>  <compound>
CCc1nc(SCC(=O)NC2CC2)c2c(C)c(C)sc2n1

>  <unitOfMeasurement>
%

>  <valueMeasured>
-4.16

$$$$
>  <compound>
O=C(NCCCn1ccnc1)C(=O)c1c[nH]c2ccccc12

>  <unitOfMeasurement>
%

>  <valueMeasured>
3.2

$$$$
>  <compound>
CCOC(=O)C1CCN(S(=O)(=O)c2ccc3[nH]c(=O)oc3c2)CC1

>  <unitOfMeasurement>
%

>  <valueMeasured>
3.58

$$$$
>  <compound>
O=C(CCCN1CCC(n2c(=O)[nH]c3ccccc32)CC1)c1ccc(F)cc1

>  <unitOfMeasurement>
%

>  <valueMeasured>
-80.8

$$$$
>  <compound>
N#Cc1ccc(NC(=O)c2cc(S(=O)(=O)N3CCOCC3)ccc2N2CCCC2)cc1

>  <unitOfMeasurement>
%

>  <valueMeasured>
-58.9

$$$$
>  <compound>
CN1/C(=C\C=C\C2=[N+](C)c3ccc4ccccc4c3C2(C)C)C(C)(C)c2ccccc21.[O-][Cl+3]([O-])([O-])[O-]

>  <unitOfMeasurement>
%

>  <valueMeasured>
-43.6

$$$$
>  <compound>
O=c1[nH]c2ccccc2n1CCCN1CCC(n2c(=O)[nH]c3cc(Cl)ccc32)CC1

>  <unitOfMeasurement>
%

>  <valueMeasured>
-46.8

$$$$
>  <compound>
CCC(CC)c1nnc(NC(=O)C23CC4CC(CC(NC(C)=O)(C4)C2)C3)s1

>  <unitOfMeasurement>
%

>  <valueMeasured>
0.699

$$$$
>  <compound>
O=C(O)C(=O)O.OC(COCc1ccc(Cl)cc1)CN1CC=C(c2ccccc2)CC1 (stereo not shown)

>  <unitOfMeasurement>
%

>  <valueMeasured>
-84.2

$$$$
>  <compound>
COc1ccccc1C(=O)Nc1ccnn1C1CCN(Cc2csc(C(C)=O)c2)CC1

>  <unitOfMeasurement>
%

>  <valueMeasured>
-50.9

$$$$
>  <compound>
O=c1[nH]c2ccccc2n1C1CCCCC1

>  <unitOfMeasurement>
%

>  <valueMeasured>
7.5

$$$$
>  <compound>
Cc1ccc(COc2coc(CN3CCN(C(=O)c4ccco4)CC3)cc2=O)cc1

>  <unitOfMeasurement>
%

>  <valueMeasured>
-16.4

$$$$
>  <compound>
Cc1cccc(NS(=O)(=O)c2ccc3c(c2)NC(=O)CC(=O)N3)c1

>  <unitOfMeasurement>
%

>  <valueMeasured>
18.4

$$$$
>  <compound>
COc1ccccc1C(=O)Nc1ccnn1C1CCN(Cc2cnn(C)c2)CC1

>  <unitOfMeasurement>
%

>  <valueMeasured>
-27

$$$$
>  <compound>
O=C(CCC1COc2ccccc2O1)NCC1COc2ccccc2O1 (stereo not shown)

>  <unitOfMeasurement>
%

>  <valueMeasured>
6.41

$$$$
>  <compound>
COc1ccccc1CN1CCC(n2nccc2NC(=O)c2ccccc2Cl)CC1

>  <unitOfMeasurement>
%

>  <valueMeasured>
-47.2

$$$$
>  <compound>
CCN(CC)c1ccc(/C=C2\C(=O)NC(=S)N(C)C2=O)o1

>  <unitOfMeasurement>
%

>  <valueMeasured>
7.14

$$$$
>  <compound>
COc1ccc(NC(=O)Nc2cccc(OC)c2)cc1

>  <unitOfMeasurement>
%

>  <valueMeasured>
-2.63

$$$$
>  <compound>
COc1ccc(C(=O)Nc2ccnn2C2CCN(Cc3ccc4nonc4c3)CC2)cc1

>  <unitOfMeasurement>
%

>  <valueMeasured>
-0.334

$$$$
>  <compound>
C=CCN1C=C2C(=O)C(C)(OC(=O)CCC(=O)OC)C(=O)C(Br)=C2C=C1c1ccc(OC)cc1 (stereo not shown)

>  <unitOfMeasurement>
%

>  <valueMeasured>
7.67

$$$$
>  <compound>
Cn1c(SCC(=O)N/N=C/C=C\c2ccco2)nc2ccccc21

>  <unitOfMeasurement>
%

>  <valueMeasured>
-13.7

$$$$
>  <compound>
CCOC(=O)C1CCN(S(=O)(=O)c2ccc3[nH]c(=O)ccc3c2)CC1

>  <unitOfMeasurement>
%

>  <valueMeasured>
-2.48

$$$$
>  <compound>
CCCn1cc(CN2CCCC(C(=O)c3cccc(OC)c3)C2)c(C)n1 (stereo not shown)

>  <unitOfMeasurement>
%

>  <valueMeasured>
-14.5

$$$$
>  <compound>
Cc1ccccc1C(=O)NNC(=S)Nc1cccc(C(F)(F)F)c1

>  <unitOfMeasurement>
%

>  <valueMeasured>
13.2

$$$$
